Just for reference, patent US10532986B2 is where these values come from.

biological target: Recombinant human PDE4B (Homo sapiens, UniProt Q07343); construct: amino acid 305-end; GST (N); assay: Inhibitory activity of the compounds against PDE 4B (fluorescence polarization, Transcreener AMP2/GMP2); details: recombinant human PDE4B (aa 305-end, GST tag); 1 μM cAMP; 1 hour at room temperature
Sequence (Q07343 305-736 limits assumed): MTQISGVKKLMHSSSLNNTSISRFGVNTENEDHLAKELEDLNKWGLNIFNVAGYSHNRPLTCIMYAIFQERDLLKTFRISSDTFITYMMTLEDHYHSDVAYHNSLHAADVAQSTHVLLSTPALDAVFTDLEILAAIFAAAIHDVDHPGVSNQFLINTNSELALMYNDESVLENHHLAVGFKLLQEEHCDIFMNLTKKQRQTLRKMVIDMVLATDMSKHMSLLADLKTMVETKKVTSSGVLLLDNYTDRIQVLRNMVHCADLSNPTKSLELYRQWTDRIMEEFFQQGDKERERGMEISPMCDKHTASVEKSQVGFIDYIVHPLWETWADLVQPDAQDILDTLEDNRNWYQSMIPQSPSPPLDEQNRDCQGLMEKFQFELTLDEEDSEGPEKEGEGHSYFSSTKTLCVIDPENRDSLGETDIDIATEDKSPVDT
pIC50: −log10 of the molar value.
Parameter Measured: pIC50

Structure As Smiles	pIC50
CCOc1cc([C@@H](CS(C)(=O)=O)n2c(=O)n(CC)c3cc(C(F)(F)F)ccc32)ccc1OC	7.88

P = CCOc1cc([C@@H](CS(C)(=O)=O)n2c(=O)[nH]c3cc(C(F)(F)F)ccc32)ccc1OC
Q = CCOc1cc([C@@H](CS(C)(=O)=O)n2c(=O)n(C3CC3)c3cc(Cl)ccc32)ccc1OC
Returns the identifier with the smallest measured pIC50 among P and Q . # respond with the chosen item's label
Q
(Q: 7.90, P: 8.20)
